# test.name: CCTE_Shafer_MEA_acute_network_burst_percentage: CCTE's Neural Acute Assay for Percentage of Network Bursts, Shafer Lab (AID 2284022);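 note: curves fitted for loss so actives lower network burst percentage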
Activity calls are given as the source filed them. Rule for the calls: active = hit-call score of the fitted dose curve at least 0.9, where 1 is the maximum; inactive = score below 0.9.
Pick one and only one: active, inactive

FC(F)C(F)(F)OCC(Cn1cncn1)c1ccc(Cl)cc1Cl (stereo unspecified)
inactive
N#CSCSC#N
active
CCc1cnc(C2=NC(C)(C(C)C)C(=O)N2)c(C(=O)O)c1 (stereo unspecified)
inactive

Query string: Name the outcome recorded for CCc1cccc(C)c1N(C(=O)CCl)C(C)COC (stereo unspecified) in the assay.
Result string: active

Query string: Assay result, entry `C[Si](Cn1cncn1)(c1ccc(F)cc1)c1ccc(F)cc1` — outcome?
Result string: active

* * *

# test.name: APR_HepG2_MicrotubuleCSK_72hr: Apredica 72-hour HepG2 Assay for Microtubule CSK Stabilty (AID 2282919)
# applied.conditions: HepG2 microtubule cytoskeleton, high-content imaging, actives raise or lower the signal
Active and inactive are the calls of the source. The calls were made as follows: active = hit-call score of the fitted dose curve at least 0.9, where 1 is the maximum; inactive = score below 0.9.
value.kind: AC50

Example molecules with recorded AC50:
CC1(C(=O)Nc2ccc(O)c(Cl)c2Cl)CCCCC1
91.7 µM (active)
N#CSCSC#N
inactive
CCCSP(=O)(OCC)Oc1ccc(Br)cc1Cl (configuration not stated)
113 µM (active)
CN(C)C(=O)Nc1cccc(C(F)(F)F)c1
inactive
CCOP(=O)(OCC)Oc1cc(C)nc(C(C)C)n1
inactive
CCCCSP(=O)(SCCCC)SCCCC
inactive

Next:
Query string: Which AC50 value belongs to `CCCCOC(=O)c1ccccc1C(=O)O` ?
Result string: inactive

* * *

# test.name: BSK_3C_VCAM1: BioMAP Diversity Plus: 3C Assay for Vascular cell adhesion molecule 1 (VCAM1) Biomarker Activity (AID 2282999)
# applied.conditions: BioMAP 3C HUVEC, VCAM1 ELISA, cytokine-stimulated; actives raise or lower the signal
The source made the active and inactive calls. Rule for the calls: active = hit-call score of the fitted dose curve at least 0.9, where 1 is the maximum; inactive = score below 0.9.
value.kind: AC50

Known AC50 results, listed for orientation:
S=C1NCCN1
inactive
CNC(=O)Oc1cccc2c1OC(C)(C)O2
28.5 µM (active)
CC(C)=CC1C(C(=O)OCN2C(=O)C3=C(CCCC3)C2=O)C1(C)C (stereo unspecified)
14.4 µM (active)
CNC(=O)ON=C(SC)C(=O)N(C)C
inactive
CCOP(=S)(OCC)OC(Cl)C(Cl)(Cl)Cl (stereo unspecified)
14.6 µM (active)
Cc1ccn2nc(S(=O)(=O)Nc3c(F)cccc3F)nc2n1
inactive

Please look at the items below and tell me AC50 for each one, in order.
1. COP(=O)(OC)SCn1c(=O)oc2cc(Cl)cnc21
2. C[Si](Cn1cncn1)(c1ccc(F)cc1)c1ccc(F)cc1
3. CCCCSP(=O)(SCCCC)SCCCC
4. CSc1nnc(C(C)(C)C)c(=O)n1N
5. CC(C)N(C(=O)SCC(Cl)=C(Cl)Cl)C(C)C
6. CC[C@H](C)[C@H]1O[C@]2(C=C[C@@H]1C)C[C@@H]1C[C@@H](C/C=C(\C)[C@@H](O[C@H]3C[C@H](OC)[C@@H](O[C@H]4C[C@H](OC)[C@@H](NC)[C@H](C)O4)[C@H](C)O3)[C@@H](C)/C=C/C=C3\CO[C@@H]4[C@H](O)C(C)=C[C@@H](C(=O)O1)[C@]34O)O2
7. Cc1cc(C2CC2)nc(Nc2ccccc2)n1

Result string:
["inactive", "inactive", "inactive", "inactive", "35.5 µM (active)", "6.56 µM (active)", "inactive"]

For each of the molecules below, note its AC50.
1. O=c1ccc(=O)[nH][nH]1
2. O=C(O)c1cc(Oc2ccc(C(F)(F)F)cc2Cl)ccc1[N+](=O)[O-]
3. CNc1cnn(-c2cccc(C(F)(F)F)c2)c(=O)c1Cl
4. COP(=O)(OC)C(O)C(Cl)(Cl)Cl (stereo unspecified)
5. CC(C1CC1)C(O)(Cn1cncn1)c1ccc(Cl)cc1 (stereo unspecified)
6. CCOP(=O)(SC(C)CC)N1CCSC1=O (stereo unspecified)
7. CCOP(=O)(NC(C)C)Oc1ccc(SC)c(C)c1 (stereo unspecified)

Result string:
["inactive", "inactive", "inactive", "inactive", "inactive", "inactive", "inactive"]

State recorded AC50 for all listed molecules.
1. C#CCC1=C(C)C(OC(=O)C2C(C=C(C)C)C2(C)C)CC1=O (stereo unspecified)
2. CCC(CC)Nc1c([N+](=O)[O-])cc(C)c(C)c1[N+](=O)[O-]
3. CCOP(=S)(Oc1cnc(C(C)(C)C)nc1)OC(C)C (stereo unspecified)

Result string:
["inactive", "17.1 µM (active)", "36.8 µM (active)"]

Provide reported AC50 for each item, in the same order as listed.
1. CCOC(=O)CC(SP(=O)(OC)OC)C(=O)OCC (stereo unspecified)
2. CCNc1nc(Cl)nc(NC(C)(C)C#N)n1
3. CCCCOC(=O)[C@@H](C)Oc1ccc(Oc2ccc(C#N)cc2F)cc1
4. CNC(=O)ON=C(C)SC
5. Cc1nn(-c2cc(NS(C)(=O)=O)c(Cl)cc2Cl)c(=O)n1C(F)F
6. CCCCN(CC)c1c([N+](=O)[O-])cc(C(F)(F)F)cc1[N+](=O)[O-]
7. N#CSCSC#N

Result string:
1. inactive
2. inactive
3. inactive
4. inactive
5. inactive
6. inactive
7. 8.79 µM (active)

For every item below, please supply its AC50.
1. CN1COCN(Cc2cnc(Cl)s2)C1=N[N+](=O)[O-]
2. COc1ccc(C(=CC(=O)N2CCOCC2)c2ccc(Cl)cc2)cc1OC
3. CSc1nc(NC(C)C)nc(NC(C)C)n1
4. CCC(=O)Nc1ccc(Cl)c(Cl)c1
5. CC(Oc1cccc(Cl)c1)C(=O)O (stereo unspecified)
6. CC(=NC#N)N(C)Cc1ccc(Cl)nc1

Result string:
inactive
inactive
inactive
inactive
inactive
inactive
